Where do these numbers come from? They come from the supplement of paper PMC12297408.

Tested on: Plasmodium falciparum NF54/iGP1_RE9H ulg8 stage V gametocytes
Assay: gametocyte viability (luciferase signal relative to DMSO control) (% of DMSO control); higher = less gametocytocidal activity, active = 50 or less
Conditions: concentration: 10 µM; exposure time: 72 h
Where a name gives a salt, the structure may show the parent alone.
Class definitions on gametocyte viability: one (below 80), two (80 to below 90), three (90 or more)

Input `C#Cc1cccc(Nc2ncnc3cc(OC)c(OCCCCCCC(=O)NO)cc23)c1` ; output its category
one

Input O=C(O)CC[C@H](O)C(=O)O [L-α-Hydroxyglutaric Acid (sodium salt)] ; output its category
two

Input `CCC(CC)(NC(=O)C(C)C)C(=O)N[C@@H](CCCN=C(N)N)C(=O)NC1(C(=O)NC(c2ccc(F)cc2)c2ccc(F)cc2)CCCC1` ; output its category
two

Input `CC(C)(CNC(=O)c1cccc(-c2noc(C(F)(F)F)n2)c1)c1coc(-c2ccccc2)n1` ; output its category
two

Input CC(NC(=O)c1ccccc1/N=C/c1c(O)ccc2ccccc12)c1ccccc1 (centres undefined) ; output its category
three

---

Test system: Plasmodium falciparum NF54/iGP1_RE9H ulg8 stage V gametocytes
Test: gametocyte viability (luciferase signal relative to DMSO control) (% of DMSO control); higher = less gametocytocidal activity, active = 50 or less
Conditions: concentration: 10 µM; exposure time: 72 h
Kindly state gametocyte viability for each of the entries shown.

Can you share its gametocyte viability? I mean this molecule: `CC(C)C(=O)SCCCCCCC(=O)Nc1nc(-c2ccccc2)cs1`
79.7 (inactive)

Can you share its gametocyte viability? I mean this molecule: `Nc1nc(=S)c2[nH]cnc2[nH]1`
94.6 (inactive)

Can you share its gametocyte viability? I mean this molecule: `Cn1cc(C(=O)Nc2ccc3c(c2)OCCO3)c2ccccc2c1=O`
79.9 (inactive)

Can you share its gametocyte viability? I mean this molecule: `Cn1cc(CCn2cnc(-c3cnn(C)c3)c2-c2ccc(C#N)cc2)cn1`
89.1 (inactive)

Can you share its gametocyte viability? I mean this molecule: `COc1cc(C#N)ccc1S(=O)(=O)Nc1ccc2c(c1)cc(C)c(=O)n2C`
91.4 (inactive)

---

Kindly state gametocyte viability for each of the entries shown.
System: Plasmodium falciparum NF54/iGP1_RE9H ulg8 stage V gametocytes
Experiment: gametocyte viability (luciferase signal relative to DMSO control) (% of DMSO control); higher = less gametocytocidal activity, active = 50 or less
Conditions: concentration: 1 µM; exposure time: 72 h

Notebook: pull reported gametocyte viability for Plasmodium falciparum NF54/iGP1_RE9H ulg8 stage V gametocytes, entry `CNC(=O)c1cc(Oc2ccc(NC(=O)Nc3ccc(Cl)c(C(F)(F)F)c3)c(F)c2)ccn1`
95.1 (inactive)

Notebook: pull reported gametocyte viability for Plasmodium falciparum NF54/iGP1_RE9H ulg8 stage V gametocytes, entry CS(=O)(=O)CCNCc1ccc(-c2ccc3ncnc(Nc4ccc(OCc5cccc(F)c5)c(Cl)c4)c3c2)o1 [Lapatinib Ditosylate (Tykerb)]
102 (inactive)

Notebook: pull reported gametocyte viability for Plasmodium falciparum NF54/iGP1_RE9H ulg8 stage V gametocytes, entry `COc1cc(Nc2ncc(F)c(Nc3ccc4c(n3)N(COP(=O)(O)O)C(=O)C(C)(C)O4)n2)cc(OC)c1OC`
95.1 (inactive)

Notebook: pull reported gametocyte viability for Plasmodium falciparum NF54/iGP1_RE9H ulg8 stage V gametocytes, entry `O=C(O)c1ccc2c(c1)nc(Nc1cccc(Cl)c1)c1ccncc12`
101 (inactive)

Notebook: pull reported gametocyte viability for Plasmodium falciparum NF54/iGP1_RE9H ulg8 stage V gametocytes, entry `Oc1cccc(-c2nc(N3CCOCC3)c3oc4ncccc4c3n2)c1`
115 (inactive)

Notebook: pull reported gametocyte viability for Plasmodium falciparum NF54/iGP1_RE9H ulg8 stage V gametocytes, entry `CCN1CCN(Cc2ccc(-c3cc4c(N[C@H](C)c5ccccc5)ncnc4[nH]3)cc2)CC1`
96.1 (inactive)
